PROTOCOL: Drug uptake in blood of Lewis rat collagen-induced arthritis model at 3 mg/kg, po qd administered on day 15 post immunization measured at 24 hrs on day 18
Type: ADME, organism-based
Set-up: dose 3 mg/kg, route oral
APPLIED CONDITIONS: read-out: Drug uptake
PROPERTY: concentration at 24 h (nM)
Answers are plain numbers, in nM.

Query: What concentration at 24 h value was documented for this compound, `NC(=O)c1nnc(N[C@@H]2CCCC[C@@H]2N)nc1Nc1cccc2cc[nH]c12` ?
Response: 35

----------
STUDY SYSTEM: UniProtKB Q12809
Sequence (Q12809 whole entry): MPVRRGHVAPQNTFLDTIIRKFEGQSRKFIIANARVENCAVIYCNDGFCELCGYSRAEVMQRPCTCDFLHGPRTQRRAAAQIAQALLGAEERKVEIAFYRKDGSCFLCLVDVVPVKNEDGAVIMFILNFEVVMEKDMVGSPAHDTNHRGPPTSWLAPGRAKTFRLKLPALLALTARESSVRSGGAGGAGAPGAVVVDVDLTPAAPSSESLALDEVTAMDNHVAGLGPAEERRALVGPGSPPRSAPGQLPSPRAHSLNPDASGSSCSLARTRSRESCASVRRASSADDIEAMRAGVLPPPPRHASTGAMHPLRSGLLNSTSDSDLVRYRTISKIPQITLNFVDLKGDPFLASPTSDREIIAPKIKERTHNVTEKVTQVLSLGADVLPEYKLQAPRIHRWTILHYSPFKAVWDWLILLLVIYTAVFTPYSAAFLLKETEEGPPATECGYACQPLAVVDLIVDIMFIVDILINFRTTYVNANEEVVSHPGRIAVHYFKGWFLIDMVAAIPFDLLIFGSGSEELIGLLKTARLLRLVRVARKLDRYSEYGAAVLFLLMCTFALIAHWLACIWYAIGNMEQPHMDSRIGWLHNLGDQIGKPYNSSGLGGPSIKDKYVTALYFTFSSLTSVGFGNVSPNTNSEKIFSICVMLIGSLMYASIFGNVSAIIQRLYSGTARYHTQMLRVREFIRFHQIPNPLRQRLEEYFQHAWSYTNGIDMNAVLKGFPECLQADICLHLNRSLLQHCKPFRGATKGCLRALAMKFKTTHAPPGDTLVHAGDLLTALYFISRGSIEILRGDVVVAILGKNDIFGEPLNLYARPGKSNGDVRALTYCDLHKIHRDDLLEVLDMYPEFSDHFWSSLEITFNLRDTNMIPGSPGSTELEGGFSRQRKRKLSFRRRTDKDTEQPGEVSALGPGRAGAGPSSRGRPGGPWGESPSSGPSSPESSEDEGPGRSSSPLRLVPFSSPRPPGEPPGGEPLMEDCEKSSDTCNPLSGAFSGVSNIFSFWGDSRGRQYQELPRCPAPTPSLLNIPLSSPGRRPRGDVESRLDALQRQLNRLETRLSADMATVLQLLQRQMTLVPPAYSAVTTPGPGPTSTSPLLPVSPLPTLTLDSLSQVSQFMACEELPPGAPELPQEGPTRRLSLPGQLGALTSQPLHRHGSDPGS
PROTOCOL: Inhibition of human ERG expressed in CHO cells by automated Qpatch clamp assay
Type: cell-based
PROPERTY: IC50 (µM)
One number for each entry, in µM.

STRUCTURE SMILES	STUDY SYSTEM	IC50 / µM
NC(=O)c1ncc(N[C@@H]2CCCC[C@@H]2N)nc1Nc1cccc2cc[nH]c12	UniProtKB Q12809	8.1

Would you mind giving IC50 for every molecule in the list below?
1. NC(=O)c1ncc(N[C@@H]2CCCC[C@@H]2N)nc1Nc1cccc(-n2nccn2)c1
2. NC(=O)c1nnc(N[C@@H]2CCCC[C@@H]2N)nc1Nc1cccc2[nH]ccc12
3. NC(=O)c1nnc(N[C@@H]2CCCC[C@@H]2N)nc1Nc1cccc2cc[nH]c12
4. NC(=O)c1nnc(N[C@@H]2CCCC[C@@H]2N)nc1Nc1cccc(-n2nccn2)c1

Response:
1: 10; 2: 3.7; 3: 25.9; 4: 3.7

----------
PROTOCOL: Clearance in Beagle dog at 0.1 mg/kg, iv and 0.3 mg/kg, po
Type: ADME, organism-based, Canis lupus familiaris
APPLIED CONDITIONS: in vivo
PROPERTY: clearance

Query: What clearance value was documented for this compound, `NC(=O)c1nnc(N[C@@H]2CCCC[C@@H]2N)nc1Nc1cccc2cc[nH]c12` ?
Response: 11 mL/min/kg

----------
PROTOCOL: Drug uptake in blood of Lewis rat collagen-induced arthritis model at 3 mg/kg, po qd administered on day 15 post immunization measured at 4 hrs on day 18
Assay type: ADME, organism-based
Parameters: dose 3 mg/kg, route oral
APPLIED CONDITIONS: read-out: Drug uptake
PROPERTY: concentration at 4 h (nM)
Numbers only, in nM.

Query: What concentration at 4 h value was documented for this compound, `NC(=O)c1nnc(N[C@@H]2CCCC[C@@H]2N)nc1Nc1cccc2cc[nH]c12` ?
Response: 126

----------
PROTOCOL: Volume of distribution at steady state in Sprague-Dawley rat at 1 mg/kg, iv and 3 mg/kg, po administered as cassette dosing
Type: ADME, organism-based
APPLIED CONDITIONS: in vivo, read-out: Vdss
PROPERTY: Vd (L/kg)
Answers are plain numbers, in L/kg.

STRUCTURE SMILES	READING
NC(=O)c1ncc(N[C@@H]2CCCC[C@@H]2N)nc1Nc1cccc2cc[nH]c12	12.3
NC(=O)c1nnc(N[C@@H]2CCCC[C@@H]2N)nc1Nc1cccc2[nH]ccc12	10.3

Next up:
Query: What Vd value was documented for this compound, `NC(=O)c1nnc(N[C@@H]2CCCC[C@@H]2N)nc1Nc1cccc2cc[nH]c12` ?
Response: 16.4

----------
PROTOCOL: Drug uptake in blood of Lewis rat collagen-induced arthritis model at 10 mg/kg, po qd administered on day 15 post immunization measured at 4 hrs on day 18
Assay type: ADME, organism-based
Set-up: dose 10 mg/kg, route oral
APPLIED CONDITIONS: read-out: Drug uptake
PROPERTY: concentration at 4 h (nM)
One number for each entry, in nM.

Query: What concentration at 4 h value was documented for this compound, `NC(=O)c1nnc(N[C@@H]2CCCC[C@@H]2N)nc1Nc1cccc2cc[nH]c12` ?
Response: 866

----------
PROTOCOL: Drug uptake in blood of Lewis rat collagen-induced arthritis model at 30 mg/kg, po qd administered on day 15 post immunization measured at 8 hrs on day 18
Type: ADME, organism-based
Parameters: dose 30 mg/kg, route oral
APPLIED CONDITIONS: read-out: Drug uptake
PROPERTY: concentration at 8 h (nM)
Answers are plain numbers, in nM.

Query: What concentration at 8 h value was documented for this compound, `NC(=O)c1nnc(N[C@@H]2CCCC[C@@H]2N)nc1Nc1cccc2cc[nH]c12` ?
Response: 1720

----------
PROTOCOL: Volume of distribution at steady state in Beagle dog at 0.1 mg/kg, iv and 0.3 mg/kg, po
Format: ADME, organism-based, Canis lupus familiaris
APPLIED CONDITIONS: in vivo, read-out: Vdss
PROPERTY: Vd (L/kg)
Give bare numbers, in L/kg.

Query: What Vd value was documented for this compound, `NC(=O)c1nnc(N[C@@H]2CCCC[C@@H]2N)nc1Nc1cccc2cc[nH]c12` ?
Response: 6.8

----------
PROTOCOL: Clearance in Sprague-Dawley rat at 1 mg/kg, iv and 3 mg/kg, po administered as cassette dosing
Type: ADME, organism-based
APPLIED CONDITIONS: in vivo
PROPERTY: clearance

Here is how some molecules turned out for clearance.
STRUCTURE SMILES	PROPERTY	READING
NC(=O)c1nnc(N[C@@H]2CCCC[C@@H]2N)nc1Nc1cccc2[nH]ccc12	clearance	83 mL/min/kg
NC(=O)c1ncc(N[C@@H]2CCCC[C@@H]2N)nc1Nc1cccc2cc[nH]c12	clearance	28 mL/min/kg

Next up:
Query: What clearance value was documented for this molecule, `NC(=O)c1nnc(N[C@@H]2CCCC[C@@H]2N)nc1Nc1cccc2cc[nH]c12` ?
Response: 31 mL/min/kg

----------
STUDY SYSTEM: UniProt:Q12866
Sequence (Q12866 whole entry): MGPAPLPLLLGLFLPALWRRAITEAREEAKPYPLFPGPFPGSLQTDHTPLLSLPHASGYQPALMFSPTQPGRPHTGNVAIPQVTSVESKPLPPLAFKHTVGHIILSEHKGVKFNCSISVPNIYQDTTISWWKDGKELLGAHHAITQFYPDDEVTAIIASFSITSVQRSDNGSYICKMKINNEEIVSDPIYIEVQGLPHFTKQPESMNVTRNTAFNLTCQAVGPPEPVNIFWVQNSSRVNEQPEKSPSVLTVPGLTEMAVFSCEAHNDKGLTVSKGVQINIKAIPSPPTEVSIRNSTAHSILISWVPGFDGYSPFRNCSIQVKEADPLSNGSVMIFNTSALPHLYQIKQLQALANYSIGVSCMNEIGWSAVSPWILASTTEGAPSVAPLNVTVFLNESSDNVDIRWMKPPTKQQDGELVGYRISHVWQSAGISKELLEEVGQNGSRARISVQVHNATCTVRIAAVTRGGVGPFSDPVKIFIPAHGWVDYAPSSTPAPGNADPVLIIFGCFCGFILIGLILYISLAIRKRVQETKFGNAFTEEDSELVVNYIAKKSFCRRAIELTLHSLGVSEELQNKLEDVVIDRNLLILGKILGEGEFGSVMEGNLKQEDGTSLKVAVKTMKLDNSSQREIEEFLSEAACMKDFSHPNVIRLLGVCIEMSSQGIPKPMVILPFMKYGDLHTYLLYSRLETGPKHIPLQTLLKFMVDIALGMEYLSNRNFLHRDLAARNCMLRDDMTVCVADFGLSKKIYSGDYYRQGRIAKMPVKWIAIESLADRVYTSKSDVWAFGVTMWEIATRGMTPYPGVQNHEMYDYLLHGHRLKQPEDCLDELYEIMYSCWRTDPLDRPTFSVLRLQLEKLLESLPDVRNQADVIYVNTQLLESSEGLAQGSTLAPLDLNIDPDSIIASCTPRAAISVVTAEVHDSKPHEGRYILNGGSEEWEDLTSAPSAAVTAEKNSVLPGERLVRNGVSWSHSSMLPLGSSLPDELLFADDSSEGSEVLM
PROPERTY: pKd
Give bare numbers, as −log10 of the molar value.

Query: What pKd value was documented for this molecule, `NC(=O)c1nnc(N[C@@H]2CCCC[C@@H]2N)nc1Nc1cccc2cc[nH]c12` ?
Response: 6.82

----------
STUDY SYSTEM: Tyrosine-protein kinase SYK (Homo sapiens, UniProt P43405)
PROTOCOL: Inhibition of Syk in anti-igM stimulated human Ramos B cells assessed as phospho-BLNK level preincubated for 30 mins followed by anti-IgM stimulation measured after 15 mins by flow cytometric analysis
Type: cell-based
Provide the recorded IC50 for the entries that follow.
Numbers only, in nM.

STRUCTURE SMILES	PROPERTY	MEASURE UNIT	READING
NC(=O)c1ccc(N[C@@H]2CCCC[C@@H]2N)nc1Nc1cccc(-n2nccn2)c1	IC50	nM	445
NC(=O)c1nnc(N[C@@H]2CCCC[C@@H]2N)nc1Nc1cccc2[nH]ccc12	IC50	nM	14
NC(=O)c1nnc(N[C@@H]2CCCC[C@@H]2N)nc1Nc1cccc2cc[nH]c12	IC50	nM	99
NC(=O)c1cnc(N[C@@H]2CCCC[C@@H]2N)nc1Nc1cccc2cc[nH]c12	IC50	nM	170
NC(=O)c1ncc(N[C@@H]2CCCC[C@@H]2N)nc1Nc1cccc2cc[nH]c12	IC50	nM	30

Would you mind giving IC50 for every compound in the list below?
1. NC(=O)c1ccc(N[C@@H]2CCCC[C@@H]2N)nc1Nc1cccc2cc[nH]c12
2. NC(=O)c1ncc(N[C@@H]2CCCC[C@@H]2N)nc1Nc1cccc(-n2nccn2)c1

Response:
438
69

----------
STUDY SYSTEM: Tyrosine-protein kinase ZAP-70 (Homo sapiens, UniProt P43403)
Sequence (P43403 whole entry): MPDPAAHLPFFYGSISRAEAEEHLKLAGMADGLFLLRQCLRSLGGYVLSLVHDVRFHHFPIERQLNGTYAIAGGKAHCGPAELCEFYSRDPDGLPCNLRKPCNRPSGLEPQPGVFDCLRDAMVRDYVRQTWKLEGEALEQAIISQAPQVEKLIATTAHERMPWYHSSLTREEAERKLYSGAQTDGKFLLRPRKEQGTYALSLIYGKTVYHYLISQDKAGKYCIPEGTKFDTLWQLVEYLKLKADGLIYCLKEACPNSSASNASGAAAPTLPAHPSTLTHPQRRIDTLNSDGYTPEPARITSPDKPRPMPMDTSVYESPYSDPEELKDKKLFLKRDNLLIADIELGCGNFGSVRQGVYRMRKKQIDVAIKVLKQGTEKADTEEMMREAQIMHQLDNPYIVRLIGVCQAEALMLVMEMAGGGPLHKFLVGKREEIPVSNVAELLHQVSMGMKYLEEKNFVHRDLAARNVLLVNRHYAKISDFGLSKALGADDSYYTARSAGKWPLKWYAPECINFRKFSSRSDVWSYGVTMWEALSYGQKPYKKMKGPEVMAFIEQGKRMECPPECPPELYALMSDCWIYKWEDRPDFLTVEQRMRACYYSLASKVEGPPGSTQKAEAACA
PROTOCOL: Inhibition of human ZAP70
PROPERTY: IC50 (nM)
Give bare numbers, in nM.

Query: What IC50 value was documented for this compound, `NC(=O)c1nnc(N[C@@H]2CCCC[C@@H]2N)nc1Nc1cccc2cc[nH]c12` ?
Response: 251
